Test system: Rabbit Psoas myofibrils (skeletal myosin ATPase)
Experimental details: Myofibril ATPase assay, rabbit psoas (skeletal) myofibrils
Type: biochemical
Measurement context: rabbit psoas myofibrils; Y75 value
Measured parameter: Skeletal EC25 (µM)
Give bare numbers, in µM.

Sample records with Skeletal EC25:
[
  {
    "Compound": "COc1nccc2[nH]c(=O)c(CC(=O)N[C@H](C)c3ncc(C#N)cc3F)c(C(F)(F)F)c12 (single isomer, unassigned) [compound 3009]",
    "Result unit": "µM",
    "Skeletal EC25": 100.00
  },
  {
    "Compound": "CCCOc1nccc2[nH]c(=O)c(CC(=O)N[C@@H](C)c3ccc(F)cc3F)c(C)c12 [compound 384]",
    "Result unit": "µM",
    "Skeletal EC25": 0.04
  }
]

For every item in the list below, what is its measured Skeletal EC25?
1. Cc1nccc2[nH]c(=O)c([C@H](C)C(=O)N[C@@H](C)c3ccc(F)cc3F)c(C(F)(F)F)c12 (single isomer, unassigned) [compound 413]
2. Cc1nccc2[nH]c(=O)c(CC(=O)N[C@H](C)c3ncc(F)cc3F)c(C)c12 (single isomer, unassigned) [compound 378]
3. Cc1nccc2[nH]c(=O)c(CC(=O)N[C@@H](C)c3cccc(O)c3)c(C)c12 (single isomer, unassigned) [compound 331]
4. COc1nccc2[nH]c(=O)c(CC(=O)N[C@@H](C)c3ccc(F)cc3F)c(C(F)(F)F)c12 [compound 423]

10.76
3.18
100.00
0.34
